- Assay target: P. aeruginosa RmlA (Pseudomonas aeruginosa, UniProt Q9HU22)
- Construct: made in house
- Sequence (Q9HU22 1-293): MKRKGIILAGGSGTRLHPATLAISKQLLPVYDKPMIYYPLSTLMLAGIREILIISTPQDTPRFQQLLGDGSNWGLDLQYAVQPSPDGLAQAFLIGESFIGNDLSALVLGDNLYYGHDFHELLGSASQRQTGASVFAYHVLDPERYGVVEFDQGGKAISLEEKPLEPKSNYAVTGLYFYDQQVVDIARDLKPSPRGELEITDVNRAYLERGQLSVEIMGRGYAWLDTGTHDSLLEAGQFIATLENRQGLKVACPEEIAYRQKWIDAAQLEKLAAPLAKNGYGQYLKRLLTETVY
- Test description: In vitro RmlA inhibition assay (BIOMOL Green phosphate detection)
- Type: biochemical
- Condition details: 10 μM inhibitor; 15 nM recombinant RmlA, 5 μM dTTP, 5 μM G-1-P, 30 min, room temperature
Could you please report measured inhibition at 10 µM for the items listed next?
Give bare numbers, in %.

>>> print(df.to_string())
                            molecule_smiles                              assay_target  recorded_number
0  CNCCNc1c(N(C)S(=O)(=O)c2ccccc2)c(=O)[nH]c(=O)n1Cc1ccc(Br)cc1  P. aeruginosa RmlA (Pseudomonas aeruginosa, UniProt Q9HU22)                0

Dear colleague, could you please provide inhibition at 10 µM for the compounds listed below?
1. CN(c1c(NCCCCCN)n(Cc2ccc(Br)cc2)c(=O)[nH]c1=O)S(=O)(=O)c1ccccc1
2. CNCCCNc1c(N(C)S(=O)(=O)c2ccccc2)c(=O)[nH]c(=O)n1Cc1ccc(Br)cc1
3. CN(c1c(N)n(Cc2ccc(Br)cc2)c(=O)[nH]c1=O)S(=O)(=O)c1ccccc1
4. CN(c1c(NCCCCN)n(Cc2ccc(Br)cc2)c(=O)[nH]c1=O)S(=O)(=O)c1ccccc1
5. CN(c1c(NCCCn2cc(CN)nn2)n(Cc2ccccc2)c(=O)[nH]c1=O)S(=O)(=O)c1ccccc1

1: 100; 2: 100; 3: 100; 4: 100; 5: 100

---

- Assay target: P. aeruginosa RmlA (Pseudomonas aeruginosa)
- Construct: made in house
- Test description: In vitro RmlA inhibition assay (BIOMOL Green phosphate detection)
- Assay type: biochemical
- Condition details: LLE = pIC50 – cLogP
Hi there, I'd appreciate the recorded LLE (Lipophilic ligand efficiency) for every entry that follows.
Answers are plain numbers.

Worked set:
In [3]: df
Out[3]:
                                   molecule  recorded_number
0  CN(c1c(N)n(Cc2ccc(Br)cc2)c(=O)[nH]c1=O)S(=O)(=O)c1ccccc1 [Compound 1a]             5.20
1  CN(c1c(NCCCCN)n(Cc2ccc(Br)cc2)c(=O)[nH]c1=O)S(=O)(=O)c1ccccc1 [Compound 1d]             4.40
2  CN(c1c(NCCCn2cc(CN)nn2)n(Cc2ccccc2)c(=O)[nH]c1=O)S(=O)(=O)c1ccccc1 [Compound 1f]             4.50

// each molecule listed below needs its LLE (Lipophilic ligand efficiency)
1. CNCCCNc1c(N(C)S(=O)(=O)c2ccccc2)c(=O)[nH]c(=O)n1Cc1ccc(Br)cc1 [Compound 1b]
2. CN(c1c(NCCCCCN)n(Cc2ccc(Br)cc2)c(=O)[nH]c1=O)S(=O)(=O)c1ccccc1 [Compound 1e]

1. 4.30
2. 3.90
